# Test system: PBMC
# assay method text: Induction of IL6 production in human PBMC at 10 ug/ml after 48 hrs by ELISA
# Format: functional
Listed here are molecules together with their documented Activity.
Give the value in pg/mL but do not write pg/mL after it.

CC1(C)C(=O)CC[C@]2(C)[C@H]3CC=C4[C@@H]5C[C@]6(C)C[C@@H](OC6=O)[C@]5(C)CC[C@@]4(C)[C@]3(C)CC[C@@H]12 [WILFORLIDE B]; 451.1
CC(=O)O[C@@H]1[C@@H]2[C@@H](OC(C)=O)[C@@]34O[C@@]2(C)COC(=O)c2cccnc2C(C)C(C)C(=O)O[C@@H]([C@H](O)[C@H](OC(C)=O)[C@@]3(COC(=O)c2ccccc2)[C@@H]1OC(C)=O)[C@]4(C)O (stereo partly drawn); 110.1

Given the molecule COc1c(O)cc(-c2oc3cc(O)cc(O)c3c(=O)c2O)cc1O , what is its reported Activity?
203.4

====

# Tested on: PBMC
# assay method text: Induction of TNFalpha production in human PBMC at 1 ug/ml after 48 hrs by ELISA
# Format: functional
// values below are reported Activity

// below: answered compounds
C[C@@H]1O[C@@H](O[C@@H]2[C@@H](O)[C@H](OCCc3ccc(O)c(O)c3)O[C@H](COC(=O)/C=C/c3ccc(O)c(O)c3)[C@H]2O)[C@H](O)[C@H](O)[C@H]1O [ISOACTEOSIDE]; <7.8 pg/mL
COc1c(O)cc([C@H]2Oc3cc(O)cc(O)c3C(=O)[C@H]2O)cc1O; <7.8 pg/mL
COc1c(O)cc([C@H]2Oc3cc(O)cc(O)c3C[C@H]2O)cc1O; <7.8 pg/mL
C[C@H]1C(=O)CC[C@@H]2[C@]1(C)CC[C@H]1[C@@]2(C)CC[C@@]2(C)[C@@H]3CC(C)(C)CC[C@]3(CO)CC[C@]12C; 132.5 pg/mL
CC1(C)[C@@H](O)CC[C@]2(C)[C@H]3CC=C4[C@H]5C[C@](C)(C(=O)O)CC[C@]5(C)CC[C@@]4(C)[C@]3(C)CC[C@@H]12 [EPIKATONIC ACID]; <7.8 pg/mL

Turning now to a further record.
Name the recorded Activity for CC1(C)[C@H](O)CC[C@]2(C)[C@H]3CC=C4[C@@H]5C[C@@]6(C)C[C@H](OC6=O)[C@]5(C)CC[C@@]4(C)[C@]3(C)CC[C@@H]12 .
<7.8 pg/mL

====

# Tested on: PBMC
# assay method text: Induction of TNFalpha production in human PBMC at 1 ug/ml after 48 hrs by ELISA
# Type: functional
Activity for assorted compounds

CC1(C)[C@@H](O)CC[C@]2(C)[C@H]3CC=C4[C@H]5C[C@](C)(C(=O)O)C[C@@H](O)[C@]5(C)CC[C@@]4(C)[C@]3(C)CC[C@@H]12; <7.8 pg/mL

Could you tell me which Activity is on file for CC(=O)OC[C@]12[C@H](OC(C)=O)[C@H](OC(C)=O)[C@@H]3[C@@H](OC(=O)c4ccccc4)[C@@]14O[C@@]3(C)COC(=O)c1cccnc1C(C)C(C)C(=O)O[C@@H]([C@H](OC(C)=O)[C@@H]2OC(=O)c1ccccc1)[C@]4(C)O (some centres undefined) ?
26.7 pg/mL

Please give the measured Activity for this compound: CC1(C)[C@@H](O)CC[C@]2(C)[C@H]3CC=C4[C@@H]5C[C@](C)(C(=O)O)C[C@H](O)[C@]5(C)CC[C@@]4(C)[C@]3(C)CC[C@@H]12
<7.8 pg/mL

Which Activity is reported for this compound? CC1(C)[C@@H](O)CC[C@]2(C)[C@H]3CC=C4[C@@H]5C[C@@]6(C)C[C@H](OC6=O)[C@]5(C)CC[C@@]4(C)[C@]3(C)CC[C@@H]12 [3-EPIABRUSLACTONE A]
<7.8 pg/mL

What does the data say about its Activity? Entry: CC(=O)O[C@@H]1[C@@H]2[C@@H](OC(C)=O)[C@@]34O[C@@]2(C)COC(=O)c2cccnc2C(C)C(C)C(=O)O[C@@H]([C@H](O)[C@H](OC(C)=O)[C@@]3(COC(=O)c2ccccc2)[C@@H]1OC(C)=O)[C@]4(C)O (some centres undefined)
<7.8 pg/mL

Which Activity is reported for this compound? COc1c(O)cc([C@H]2Oc3c(c(O)cc(O)c3[C@H]3c4c(O)cc(O)cc4O[C@H](c4ccc(O)cc4)[C@@H]3O)C[C@H]2O)cc1O
<7.8 pg/mL

Return reported Activity; argument: C[C@@H]1[C@@]23CC[C@H]4[C@@](C)(CC[C@@]5(C)[C@@H]6C[C@](C)(C(=O)O)CC[C@]6(C)CC[C@]45C)[C@@H]2CC[C@@]1(O)OC3
54.5 pg/mL
